- target_under_test: horseradish peroxidase (HRP) tagged delF508-CFTR (Homo sapiens, UniProt P13569, DEL508-508)
- Construct: expressed in transfected cells
- Sequence (P13569 with tags, fused parts or gaps DEL508-508): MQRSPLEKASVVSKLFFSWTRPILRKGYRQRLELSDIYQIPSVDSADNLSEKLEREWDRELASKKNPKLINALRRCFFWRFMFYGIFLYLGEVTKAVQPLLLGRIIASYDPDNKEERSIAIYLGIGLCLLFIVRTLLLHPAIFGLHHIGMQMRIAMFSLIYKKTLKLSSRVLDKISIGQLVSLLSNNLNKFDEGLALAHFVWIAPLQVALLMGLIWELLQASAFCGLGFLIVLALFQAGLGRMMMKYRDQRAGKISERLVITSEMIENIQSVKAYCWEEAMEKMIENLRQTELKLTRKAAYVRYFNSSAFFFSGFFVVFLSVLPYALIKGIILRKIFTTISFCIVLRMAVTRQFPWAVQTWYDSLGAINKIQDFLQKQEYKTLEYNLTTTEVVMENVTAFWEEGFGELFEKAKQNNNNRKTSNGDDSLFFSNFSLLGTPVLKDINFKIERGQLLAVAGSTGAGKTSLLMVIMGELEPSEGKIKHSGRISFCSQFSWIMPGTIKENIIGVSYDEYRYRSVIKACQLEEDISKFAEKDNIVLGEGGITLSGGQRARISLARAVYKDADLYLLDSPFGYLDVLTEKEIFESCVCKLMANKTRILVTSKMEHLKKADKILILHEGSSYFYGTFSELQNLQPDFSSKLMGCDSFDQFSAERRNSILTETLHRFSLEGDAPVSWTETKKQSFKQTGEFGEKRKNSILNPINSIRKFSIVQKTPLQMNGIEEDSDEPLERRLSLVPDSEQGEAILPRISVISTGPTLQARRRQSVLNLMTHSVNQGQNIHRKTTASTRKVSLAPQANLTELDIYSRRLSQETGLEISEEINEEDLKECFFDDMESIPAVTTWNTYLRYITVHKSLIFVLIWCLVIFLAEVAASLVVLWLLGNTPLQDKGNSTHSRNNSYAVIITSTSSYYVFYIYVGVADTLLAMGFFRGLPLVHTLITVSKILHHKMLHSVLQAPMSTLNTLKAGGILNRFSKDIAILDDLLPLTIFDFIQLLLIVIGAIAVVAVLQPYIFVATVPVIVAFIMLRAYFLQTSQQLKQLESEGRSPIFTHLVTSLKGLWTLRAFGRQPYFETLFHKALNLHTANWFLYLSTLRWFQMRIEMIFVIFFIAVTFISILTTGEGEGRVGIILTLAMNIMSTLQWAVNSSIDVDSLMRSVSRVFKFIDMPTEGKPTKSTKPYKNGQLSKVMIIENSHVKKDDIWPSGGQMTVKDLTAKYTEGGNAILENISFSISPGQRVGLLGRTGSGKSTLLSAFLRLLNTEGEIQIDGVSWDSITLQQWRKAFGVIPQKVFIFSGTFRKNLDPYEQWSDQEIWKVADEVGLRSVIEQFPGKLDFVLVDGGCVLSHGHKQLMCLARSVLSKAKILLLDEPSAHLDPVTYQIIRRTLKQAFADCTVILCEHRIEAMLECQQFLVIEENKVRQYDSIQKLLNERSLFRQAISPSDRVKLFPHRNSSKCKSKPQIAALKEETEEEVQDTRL
- assay_info: Measurement of delF508-CFTR-HRP surface expression in CFBE41o- cells
- Assay type: cell-based
- measurement_setup: delF508-CFTR-HRP surface expression, CFBE41o- cells; read-out: DelF508-CFTR-HRP EC50
Counter-ions that a name gives are not always drawn.
reported_metric: EC50 (nM)

Sample answers from the record:
{"compound": "O=S(=O)(Nc1ccc(C(F)(F)F)c(-c2ccccc2Cl)n1)c1cccc(N2CCNCC2)n1 [Example 150, hydrochloride]", "unit_string": "nM", "EC50": 3510}
{"compound": "Cc1ccccc1-c1nc(NS(=O)(=O)c2cccc(N3CC(C)(O)C3)n2)ccc1Br", "unit_string": "nM", "EC50": 2270}
{"compound": "O=S(=O)(Nc1ccc(Cl)c(-c2ccc(F)cc2Cl)n1)c1cccc(N2CC(O)C2)n1", "unit_string": "nM", "EC50": 2030}
{"compound": "Cc1ccccc1-c1nc(NS(=O)(=O)c2cccc(N3CCNCC3)n2)ccc1C(F)(F)F [Example 161, (HCl Salt)]", "unit_string": "nM", "EC50": 2900}
{"compound": "Cc1ccc(C#N)cc1-c1nc(NS(=O)(=O)c2ccnc(N)c2)ccc1C(F)(F)F", "unit_string": "nM", "EC50": 1960}

(P) Cc1ccccc1-c1nc(NS(=O)(=O)c2cccc(N3CCNC[C@H]3C)n2)ccc1C(F)(F)F [Example 171, Hydrochloride]
(Q) Cc1ccccc1-c1nc(NS(=O)(=O)c2cccc(N3CCN(C(=O)OC(C)(C)C)[C@H](C)C3)n2)ccc1C(F)(F)F
Challenge: Hi, I'm comparing P with Q and wondering which one has the bigger number for EC50. Any idea? API: response body contains the label of the selected item.
Response given: P
(P: 2730 nM, Q: 744 nM)

(P) Cc1cccc(C)c1-c1nc(NS(=O)(=O)c2cccc(N3CCC(NC(=O)OC(C)(C)C)(C(=O)O)CC3)n2)ccc1Cl
(Q) COc1ccccc1-c1nc(NS(=O)(=O)c2cccc(N)n2)ccc1Cl
Challenge: Parameter metric = EC50. Return the lower-valued option from P and Q . API: response body contains the label of the selected item.
Response given: Q
(Q: 2300 nM, P: 3730 nM)

(I) Cc1ccccc1-c1nc(NS(=O)(=O)c2cccc(N3CCN[C@H](C(=O)O)C3)n2)ccc1C(F)(F)F
(II) Cc1cccc(C)c1-c1cc(C(F)(F)F)cc(NS(=O)(=O)c2cccc(N)n2)n1
Challenge: Hi, I'm comparing I with II and wondering which one has the bigger number for EC50. Any idea? API: response body contains the label of the selected item.
Response given: I

(1) CC1(C(=O)O)CCN(c2cccc(S(=O)(=O)Nc3ccc(C(F)(F)F)c(-c4cccc(F)c4Cl)n3)n2)CC1
(2) Cc1cccc(C)c1-c1nc(NS(=O)(=O)c2cccc(N[C@H]3C[C@@](C)(O)C3)n2)ccc1Cl
Challenge: Hi, I'm comparing 1 with 2 and wondering which one has the bigger number for EC50. Any idea? API: response body contains the label of the selected item.
Response given: 1
(1: 2920 nM, 2: 1240 nM)
